Entry source: patent US11618747B2

# ASSAY: Short term HFD mouse model: plasma and liver exposure
# Format: in vivo, mice (C57BL/6J)
# EXPERIMENTAL CONTEXT: HFD mice, three oral doses of 20 mg/kg, 4 h after last dose
REPORTED PROPERTY: liver/plasma ratio 4 h

| SMILES STRING | liver/plasma ratio 4 h |
| --- | --- |
| O=C(O)c1ccc(-c2cccc(-c3c(-c4ncccc4C(F)(F)F)c4cc(F)ccc4n3S(=O)(=O)c3ccc(C(F)F)cc3)c2)c(Cl)c1 | B (5 to ≤30) |
| N#Cc1ccccc1-c1c(-c2cccc(-c3ccc(C(=O)O)cc3Cl)c2)n(S(=O)(=O)c2ccc(C(F)F)cc2)c2ccc(F)cc12 | C (30 to ≤100) |
| Cc1ccc(S(=O)(=O)n2c(-c3cccc(-c4ccc(C(=O)O)cc4)c3)c(-c3ccsc3C#N)c3cc(F)ccc32)cc1C | A (<5) |
| Cc1ccc(S(=O)(=O)n2c(-c3cccc(C45CCC(C(=O)O)(CC4)CC5)c3)c(-c3ccsc3C#N)c3cc(F)ccc32)cc1 | D (>100) |
| N#Cc1sccc1-c1c(-c2cccc(-c3ccc(C(=O)O)cc3Cl)c2)n(S(=O)(=O)c2ccc(C(F)(F)F)nc2)c2ccc(F)cc12 | B (5 to ≤30) |

*Q* Look at this compound and give its reported liver/plasma ratio 4 h. N#Cc1nccnc1-c1c(-c2cccc(-c3cc(F)c(C(=O)O)cc3Cl)c2)n(S(=O)(=O)c2ccc(C(F)F)cc2)c2ccc(F)cc12
*A* D (>100)

*Q* # lookup: liver/plasma ratio 4 h of Cc1ccc(S(=O)(=O)n2c(-c3cccc(-c4ccc(C(=O)O)cc4)c3)c(-c3ccsc3C#N)c3cc(F)ccc32)cc1
*A* B (5 to ≤30)

*Q* Which measured liver/plasma ratio 4 h value corresponds to O=C(O)c1ccc(-c2cccc(-c3c(-c4ccccc4C4COC4)c4cc(F)ccc4n3S(=O)(=O)c3ccc(C(F)F)cc3)c2)c(Cl)c1 ?
*A* B (5 to ≤30)

*Q* Look up liver/plasma ratio 4 h for this compound: O=C(O)c1ccc(-c2cccc(-c3c(-c4c(Cl)cccc4Cl)c4cc(F)ccc4n3S(=O)(=O)c3ccc(C(F)F)cc3)c2)c(Cl)c1
*A* A (<5)

*Q* Recorded liver/plasma ratio 4 h of COc1c(C(=O)O)ccc(-c2cccc(-c3c(-c4ccccc4C#N)c4cc(F)ccc4n3S(=O)(=O)c3ccc(C(F)F)cc3)c2)c1Cl , please.
*A* C (30 to ≤100)

====

# TARGET SYSTEM: full length (FL) LXRα (Homo sapiens)
# Construct: the full length (FL) proteins of LXRα (amino acids 1-447); NP005684; expressed in transfected cells; host or cells: HEK293
# Sequence (Q13133 1-447): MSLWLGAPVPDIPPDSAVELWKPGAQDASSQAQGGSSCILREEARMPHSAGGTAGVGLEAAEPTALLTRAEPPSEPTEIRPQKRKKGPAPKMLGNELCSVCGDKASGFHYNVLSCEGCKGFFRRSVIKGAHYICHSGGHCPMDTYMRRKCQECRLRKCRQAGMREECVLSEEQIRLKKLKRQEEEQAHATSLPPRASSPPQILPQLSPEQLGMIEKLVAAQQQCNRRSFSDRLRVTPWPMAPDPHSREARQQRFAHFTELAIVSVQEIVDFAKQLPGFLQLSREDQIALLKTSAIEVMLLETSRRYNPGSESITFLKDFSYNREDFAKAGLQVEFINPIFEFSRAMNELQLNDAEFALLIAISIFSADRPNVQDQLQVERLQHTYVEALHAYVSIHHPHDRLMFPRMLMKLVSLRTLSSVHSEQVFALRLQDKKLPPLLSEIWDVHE
# ASSAY: LXR Gal4 reporter transient transfection assay (FL-M2H Gal4α)
# Format: cell-based
# EXPERIMENTAL CONTEXT: HEK293 cells, full length LXRα; read-out: FL-M2H Gal4α (EC50 range)
pEC50: −log10 of the molar value.
Give pEC50 for every item shown.

*Q* I would be grateful if you could share the reported pEC50 for O=C(O)c1ccc(-c2cccc(-c3c(-c4cccc5c4OCO5)c4cc(F)ccc4n3S(=O)(=O)c3ccc(C(F)F)cc3)c2)c(Cl)c1 .
*A* > 7.00

*Q* Name the recorded pEC50 for N#Cc1cccc(C#N)c1-c1c(-c2cccc(-c3ccc(C(=O)O)c(F)c3F)c2)n(S(=O)(=O)c2ccc(C(F)F)cc2)c2ccc(F)cc12 .
*A* > 7.00

*Q* Name the reported pEC50 value associated with the compound CC(C)(C)OC(=O)CNC(=O)c1ccc(-c2cccc(-c3c(-c4c(C#N)cccc4C#N)c4cc(F)ccc4n3S(=O)(=O)c3ccc(C(F)F)cc3)c2)c(Cl)c1
*A* > 7.00

*Q* Could you tell me which pEC50 is on file for Cc1ccc(S(=O)(=O)n2c(-c3ccnc(-c4ccc(C(=O)O)cc4)c3)c(-c3ccsc3C#N)c3cc(F)ccc32)cc1 ?
*A* > 7.00

*Q* What does the data say about its pEC50? Entry: Cc1ccc(S(=O)(=O)n2c(-c3cccc(N4CC(C(=O)O)C4)c3)c(-c3ccsc3C#N)c3cc(F)ccc32)c(F)c1
*A* 6.00 to 7.00

*Q* Requested read-out: pEC50. Entry: N#Cc1sccc1-c1c(-c2cccc(N3CC(C(=O)O)C3)c2)n(S(=O)(=O)c2ccc(C(F)F)cc2)c2ccc(F)cc12
*A* 6.00 to 7.00

*Q* Any idea what its pEC50 is? The compound is N#Cc1cccc(C#N)c1-c1c(-c2cccc(-c3c(F)cc(OCC(=O)O)cc3F)c2)n(S(=O)(=O)c2ccc(C(F)F)cc2)c2ccc(F)cc12
*A* > 7.00

*Q* For the compound O=C(O)c1ccc(-c2cccc(-c3c(-c4ncccc4N4CC(O)C4)c4cc(F)ccc4n3S(=O)(=O)c3ccc(C(F)F)cc3)c2)c(Cl)c1 , what pEC50 is on record?
*A* 6.00 to 7.00

*Q* Please give the measured pEC50 for this compound: Cn1ccc(-c2c(-c3cccc(-c4ccc(C(=O)O)cc4Cl)c3)n(S(=O)(=O)c3ccc(C(F)F)cc3)c3ccc(F)cc23)c1C#N
*A* > 7.00

*Q* Field request: pEC50 | item: N#Cc1sccc1-c1c(-c2cccc(N3CCC(C(=O)O)CC3)c2)n(S(=O)(=O)c2ccc(C(F)F)cc2)c2ccc(F)cc12
*A* > 7.00
